system: Escherichia coli; assay: Activation of Escherichia coli nitroreductase assessed as specific activity per mg of protein at 100 uM by measuring decrease in NADH concentration
Documented Activity across a set of compounds
Number first, unit second.

A selection of reference data follows.
# SMILES_RECORD, Activity
records = [
    ("O=[N+]([O-])c1ccc2c(c1)[n+]([O-])c1n2CCc2c-1cccc2[N+](=O)[O-]", "1.51 µmol/min"),
    ("NC(=O)c1cc([N+](=O)[O-])cc2c1n1c([n+]2[O-])-c2ccccc2CC1", "1.62 µmol/min"),
    ("NC(=O)c1cc([N+](=O)[O-])cc([N+](=O)[O-])c1N1CCc2ccccc2C1", "2.82 µmol/min"),
]

Let's switch to this compound now.
Activity for "O=[N+]([O-])c1ccc2c(c1)-c1n(c3ccc([N+](=O)[O-])cc3[n+]1[O-])CC2" ?
1.3 µmol/min

----------
Documented fold change (FC) across a set of compounds
target: NAD(P)H dehydrogenase [quinone] 1 (Homo sapiens); test: Activation of human NQO1 assessed as decrease in substrate concentration at 100 uM by HPLC analysis relative to CB-1954

A selection of reference data follows.
# SMILES_RECORD, fold change (FC)
rows = [
    ("O=[N+]([O-])c1cc(C(F)(F)F)c2c(c1)[n+]([O-])c1n2CCc2c-1cccc2[N+](=O)[O-]", "< 0.16"),
    ("O=[N+]([O-])c1ccc2c(c1)[n+]([O-])c1n2CCc2c-1cccc2[N+](=O)[O-]", "< 0.16"),
]

Let's switch to this compound now.
fold change (FC) for "O=[N+]([O-])c1ccc(N2CCc3ccccc3C2)c([N+](=O)[O-])c1" ?
< 0.16

----------
tested on: Escherichia coli; experiment: Activation of Escherichia coli nitroreductase assessed as specific activity per mg of protein at 100 uM by measuring decrease in substrate concentration by HPLC analysis
Documented Activity across a set of compounds

# SMILES_RECORD, EXPERIMENTAL_READOUT, RESULT
measured = [
    ("NC(=O)c1cc([N+](=O)[O-])c(N2CCc3ccccc3C2)c([N+](=O)[O-])c1", "Activity", "< 0.001 µmol/min"),
    ("O=[N+]([O-])c1cnc(N2CCc3ccccc3C2)c([N+](=O)[O-])c1", "Activity", "1.49 µmol/min"),
]

Let's switch to this compound now.
Activity for "O=C(O)c1cc([N+](=O)[O-])cc([N+](=O)[O-])c1N1CCc2ccccc2C1" ?
4.22 µmol/min

----------
Documented Activity across a set of compounds
molecular target: NAD(P)H dehydrogenase [quinone] 1 (Homo sapiens) (UniProt P15559); test: Activation of human NQO1 assessed as specific activity per mg of protein at 100 uM by measuring decrease in substrate concentration by HPLC analysis
Sequence (P15559 whole entry): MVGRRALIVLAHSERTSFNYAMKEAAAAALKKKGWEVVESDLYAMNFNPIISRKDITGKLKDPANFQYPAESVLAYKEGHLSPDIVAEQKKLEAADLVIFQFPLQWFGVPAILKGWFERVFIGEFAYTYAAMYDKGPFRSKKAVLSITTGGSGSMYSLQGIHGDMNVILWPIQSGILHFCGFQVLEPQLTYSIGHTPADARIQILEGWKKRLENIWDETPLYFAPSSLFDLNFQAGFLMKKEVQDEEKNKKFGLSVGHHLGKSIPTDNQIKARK

A selection of reference data follows.
# SMILES_RECORD, RESULT
measured = [
    ("O=[N+]([O-])c1ccc2c(c1)-c1n(c3ccc([N+](=O)[O-])cc3[n+]1[O-])CC2", "< 0.001 µmol/min"),
    ("O=[N+]([O-])c1cc(C(F)(F)F)c2c(c1)[n+]([O-])c1n2CCc2c-1cccc2[N+](=O)[O-]", "< 0.001 µmol/min"),
    ("O=C(O)c1cc([N+](=O)[O-])c(N2CCc3ccccc3C2)c([N+](=O)[O-])c1", "< 0.001 µmol/min"),
]

Let's switch to this compound now.
Activity for "O=[N+]([O-])c1ccc2c(c1)[n+]([O-])c1n2CCc2c-1cccc2[N+](=O)[O-]" ?
< 0.001 µmol/min
